- measurement_notes: soluble on expression in E. coli; label from the status in PepcDB or PDB records
property_label: soluble on expression in E. coli

• MDLPVMPPVKPMLAKSVAKIPPDMQYEAKWDGFRAIVFRDGTEVELGSRTGKPLTRYFPELVEALRDRLPERCVIDGEIVIARDGRLDFDALTERIHPAESRVRMLAEKTPASFVAFDLLALADDSLLDTPLTERRALLESALSGVTAPVHVAPATTDREVAEQWFEQYEGAGLDGVIAKPLTLRYRQDERAMFKVKHERTADVVVAGYRLHKSGPVVGSLLLGLYDDRGALQHVGVSAAFPMKRRAELVEELEPLRMEDAAGHPWAAWSNEAAHETARLPGAPSRWSGKKDLSWVPLRPERVAEVAYDHMENGARFRHTARFRRWRPDRTPESCTYAQLEEPVSYDLTEILGSRGLEHHHHHH = soluble
• MARHSALAQAERLEPLLTTNPLHGATLERIVTHLHDEYGWEELARRVPVKCFQNEPSVGSSLKFLRKTPWAREQVEAEYVKLARREDANPLIDALKRGQALDFTGVSQTKLHAALGWMLRHVEQNAQNLQLYFLPTLAHIQDVNFWPDAEPLPLLNLAIDRSALGAGDYEPGVVAELLRRGADANDPRFWPPLLHTVDVEGQAYQSKTRAPRTDLFDLLLAHGADPALEDSRGNTARSMAEAYGLRAVINKLNTLPAVSGSLEHHHHHH = soluble
• MGSDKIHHHHHHMKRPLKVLVVGAKFGELYLNSFLLEQPGLQLAGLLANGSPRARALANAFGIALYTDIEQLPDDLDIACVVVRSAVVGGAGGQLTESLLRRGLHVIQEHPVHPDELVRHQQLATRMGCQYIVNSFYPHTEAGRCWAGTAQRISRLLEGRKPNLAQLTTSRQLLYSGLDLLFQALGCDLARQVSVSLLDGDDDFHTLSLNLPDSRVLLRLQRWMAADDPDLHSLVMHQLNLAWPSGYLSLDATYGPVNWTPALHAEAHDDDRQTLYTSNADYLQHATAMPLHPAASHWRSAHEIEGPAGVGWLLQQLLAVLQGRPRADGLQADYQLAVARLWQDILRCAGPAEQRMASAPLFIDAAQLRAEG = not soluble
• PMSEIVRVHASSGTTGKPTVVGYTRRDIAMWSEVVARALNCAGASREDFIQIAYGYGLFTGGLGLHYGSEKLGATVIPISGGNTQKQVQLMADFKTTVLACTPSYALYLAESLEEAGMTTDDISLRVGIFGAEPWTPGMRKEIEIKLGIKAMDIYGLSEVMGPGVACDCEYQAGLHVN = not soluble
• MSLVVFPFKHEHPEVLLHNVRVAAAHPRVHEVLCIGYERDQTYEAVERAAPEISRATGTPVSVRLQERLGTLRPGKGDGMNTALRYFLEETQWERIHFYDADITSFGPDWITKAEEAADFGYGLVRHYFPRASTDAMITWMITRTGFALLWPHTELSWIEQPLGGELLMRREVAAMLYEDERVRRRSDWGIDTLYTFVTVQQGVSIYECYIPEGKAHRLYGGLDDLRTMLVECFAAIQSLQHEVVGQPAIHRQEHPHRVPVHIAERVGYDVEATLHRLMQHWTPRQVELLELFTTPVREGLRTCQRRPAFNFMDEMAWAATYHVLLEHFQPGDPDWEELLFKLWTTRVLNYTMTVALRGYDYAQQYLYRMLGRYRYQAALENGRGHPVPPRAALSTA = soluble

====

- measurement_notes: soluble on expression in E. coli; label from the status in PepcDB or PDB records
property_label: soluble on expression in E. coli

* NEDNSFTVRANMTYAVSKVVHWDQDAVRYPYQSYSDVNYGVMRGLVALGLFQNQDEINRSPKQTYGEVRPGDIRYKDVNADGKIDDDDIVPIAHSNVPQIQYGFALEYRYKRWTISALFTGAAKVNFLYGGSGFYPFSGGEVGNILSIVNDPKNRWTPAWYSGDPSTENPNARFPRLTYGENKNNNRASTFWLADGSYLRWKSLDISYRIGTNKVLRTVGISDMNLQFVGQNLAVWDSVKLWDPGQASKNGAVYPLQRTFSLQLTATF | not soluble
* MSLKPSTRSNVQPFRVMQMLDRVHRRRREGKDTLMFCAGQPSTGAPEAVIEEAEIALRSGPLGYTEVIGDREFRERIADWHSATYDVDTNPDNVIVTTGSSGGFVASFIATLDHGDYVAMPTPGYPAYRNILESLGAKVLNLRCTAETRFQPTAQMLEELPHKPKAVIVTSPGNPTGTIIDPEELERIAKWCDDNDAVLISDEDYHGMSFGRPLATAHQFSKNAIVVGTLSKYFSMTGWRVGWIIVPDELVTPIENLQASLSLCAPAIGQAAGRAAFTLEAGAELDAHVEAYREAREVFVDKLPEIGLGTFADPDGGLYLWVDVSAYTDDSEEWALRLLDEAGVAVAPGVDFDPEEGHKWIRLSLCASKEDTIEGVRKIGEFIKKEGHHHHHH | soluble
* MKITGVKAVFYSATGNTEEVVTAIAEKIAEKLGVSMEICNFTLPGGRTEVQTYAPSELVVFGTPVYAGRVPNKMLPVVQNNFKGEGALAVPVVTFGNRNFDNGLIELRNELENNGFHTIAGAGFAVSHVFSDKIAPGRPDEADREIMMRFAEAVAEKVEKMEEIPAPIEVRGEDPVGPYYTPLGTDGKPAVFLKAKPK | not soluble
* MAKVLVLYYSMYGHIETMARAVAEGASKVDGAEVVVKRVPETMPPQLFEKAGGKTQTAPVATPQELADYDAIIFGTPTRFGNMSGQMRTFLDQTGGLWASGALYGKLASVFSSTGTGGGQEQTITSTWTTLAHHGMVIVPIGYAAQELFDVSQVRGGTPYGATTIAGGDGSRQPSQEELSIARYQGEYVAGLAVKLNG | soluble
* MDGNAPEPRYWEKMRLVAEVLKAVEGPIYIATHVDPDGDAIGSSLGLYRALKALGKEAYWVADPPRFLRFLPKEEEYSDPVEKLPPGATLVALDSAEPSRVVGVPVEGFVINIDHHGTNPRFGHLHVVDPSKAATAQMVKDLIDLLGVEWTAEIATPVLTGILTDTGNFRFANTTPEVLRVAAELLGYGVKLAELTDRLQFRPPSYFRLMGQVLSTVAFHFGGLLVTAHLPEEAGAEEDSDDFVGLIRYVEGSVVSVFLRKREEGVKVSIRSRGGVSAQNIALKLGGGGHVPAAGATLKGLDLDQAYERVLEAVREELTRAGYLLEHHHHHH | not soluble
* MTRYLDISLGIVRDYYEAAPVKVVFVKDHPRLPTPGGIINARRGDEVELPRWQARMLREKGYVEYKEKIVDIDYVNLVHYHEVKKSAANSLLGVPSDFYLRVKELVEDLDRRIRENPGYMLFQDRENVERAIMQISERRLVKMMRLVLSGGGEEVRERLTVEENLVYSMAEEVVKGWKEYVKSLVGRR | not soluble

====

- measurement_notes: soluble on expression in E. coli; label from the status in PepcDB or PDB records
property_label: soluble on expression in E. coli

• MAHHHHHHMTSFKDCLREVREAATEHLEGYRGGDTEKALQHIPREEALTTISLVAIRLLEQELPKRGAGNDASQHELHAQLRACRKALKSHSARSAAGDEGTSDKKRRRTEESTEAPTSSSYRGSATADRSGTSNSIELGQYASSDAFDQNEQKRMKFARLMGGAKVAAQGTGGAGGHSRHNTFAASNAELKRMNANLESQFESAMSHKGKKGLGA = soluble
• MSLTIEDNHGTEGISLPIEGVAATDNRAFELLDRWGVELVAAPLQLVPFTVTGYTEEGGVANLGSHREPDLEALAAAQPSLIINGQRFAQYYDDIIALNPDATVVELDPRDGEPLDQELIRQAETLGEIFGEEEDAAKIVADFESALERAKTAYAAISDQTVMAVNVSGGNIGYIAPSVGRTYGPIFDLVGLTPALEVGNASSDHEGDDINVEAIAAANPDLILVMDRDGGTSTRNEADYVPAEQIVSDNEALANVKAVTDGYVYYAPADTYTNENIITYTEILNGMADMFEKAAQEGHHHHHH = soluble

====

- measurement_notes: soluble on expression in E. coli; label from the status in PepcDB or PDB records
property_label: soluble on expression in E. coli

• EIEEIKITMDVLVASEDVMVTVTKEGYVKRTSLRSYAASNGELPGMKEGDYLLGRYEMNTQDTLLLFTKKGNYLYLPVHQLPDIRWKDNGQHVANLVTVDKDDDILTTLAVKEFSEE = soluble
• MSAEVLVYRGSLVENRHRVSLALWGPEGLVAYAGDPGRVAYLRSSAKPFQALALYLTGAVERFGLTEEEVALATASHDGTPRHVEVAARFLGKLGLGPEHLVCGVHPPFSREARAALEAQGLAPTPLHHNCSGKHAGMLAAALALGAPAEGYHLPDHPVQRLNLATLEALSGARPGLATDGCSVPTFALSLARAARAFFLLADPGRAPEAYRTPLLRVREAMRRHPDLVAGPGSVDTLLMERLPVVAKRGADGYYGLALLEGPRGPLGVALKVEDGATLAREVAVVALLRALGLDPGKTPWDRPPVRNHRGLEVGHLEARLGLVWV = soluble
